# Tested on: rat primary articular chondrocytes
# methodDescription: Toxicity analysis (MTT) in rat primary chondrocytes
# conditionDetails: rat primary chondrocytes, 24 h
The following molecules are shown together with reported First toxic concentration at 24 h values.

# smilesCode, First toxic concentration at 24 h
data = [
    ("Cc1ncc(Nc2cc(CCc3cc(NC(=O)c4cccc(C(F)(F)F)c4)ccc3F)n[nH]2)cn1", ">10 µM"),
    ("CCNC1(c2ccc(C(=O)Nc3ccc(C)c(CCc4cc(Nc5cnccn5)[nH]n4)c3)cc2)CC1", ">10 µM"),
    ("Cc1ccc(NC(=O)c2ccnc(C(C)(C)O)c2)cc1CCc1cc(Nc2cnccn2)[nH]n1", ">10 µM"),
]

====

# Test system: rat primary articular chondrocytes
# methodDescription: Toxicity analysis (MTT) in rat primary chondrocytes
# conditionDetails: 48 h
The following molecules are shown together with reported First toxic concentration at 48 h in rat primary chondrocytes values.
metric: First toxic concentration at 48 h in rat primary chondrocytes

# molecule, targetSystem, recordedValue
measured = [
    ("CCN1Cc2cnc(Nc3cc(CCc4cc(NC(=O)c5cccc(C(F)(F)F)c5)ccc4C)n[nH]3)cc2C1 [Compound 17]", "rat primary articular chondrocytes", ">10 µM"),
    ("Cc1nc(C#N)cc(Nc2cc(CCc3cc(NC(=O)c4cccc(S(=O)(=O)N(C)C)c4)ccc3C)n[nH]2)n1 [Compound 37]", "rat primary articular chondrocytes", ">10 µM"),
    ("CC(C)(C#N)c1cc(C(=O)Nc2ccc(F)c(CCc3cc(Nc4cnccn4)[nH]n3)c2)ccn1 [Compound 11]", "rat primary articular chondrocytes", ">10 µM"),
    ("Cc1ccc(NC(=O)c2cccc(S(=O)(=O)C(C)C)c2)cc1CCc1cc(Nc2ncccc2C)[nH]n1 [Compound 35]", "rat primary articular chondrocytes", ">10 µM"),
    ("Cc1ccc(NC(=O)c2ccnc(C(C)(C)O)c2)cc1CCc1cc(Nc2cnccn2)[nH]n1 [Compound 5]", "rat primary articular chondrocytes", "10 µM"),
    ("Cc1ccc(NC(=O)c2ccnc(C(C)(C)C#N)c2)cc1CCc1cc(Nc2cnccn2)[nH]n1 [Compound 2]", "rat primary articular chondrocytes", ">10 µM"),
    ("Cc1ccc(NC(=O)c2cccc(C(F)(F)F)c2)cc1CCc1cnc(Nc2cnccn2)s1 [Compound 49]", "rat primary articular chondrocytes", "3 µM"),
    ("Cc1ccc(NC(=O)c2cccc(S(C)(=O)=O)c2)cc1CCc1cc(Nc2cnccn2)[nH]n1 [Compound 1]", "rat primary articular chondrocytes", "10 µM"),
]

====

# System: NF-kB
# methodDescription: Gene reporter (GR) assay, NF-kB activation after TNFα in JB6 Cl 41-5a (P+) cells
# Type: cell-based, murine
# conditionDetails: Mus musculus, JB6 Cl 41-5a, TNFα 2 ng/ml, non toxic concentrations; read-out: Gene reporter (GR) inhibition IC50
pIC50: −log10 of the molar value.
Threshold rule: pIC50 greater than or equal to 6 is 1; below that, 0.

# molecule, targetSystem, qualitativeLabel
measured = [
    ("Cc1ccc(NC(=O)c2cccc(C(F)(F)F)c2)cc1CCc1cc(Nc2cnccn2)[nH]n1 [Compound 3]", "NF-kB", 1),
    ("CCNC1(c2ccc(C(=O)Nc3ccc(C)c(CCc4cc(Nc5cnccn5)[nH]n4)c3)cc2)CC1 [Compound 4]", "NF-kB", 0),
    ("Cc1ncc(Nc2cc(CCc3cc(NC(=O)c4cccc(C(F)(F)F)c4)ccc3F)n[nH]2)cn1 [Compound 40]", "NF-kB", 1),
    ("O=C(Nc1ccc(F)c(CCc2cc(Nc3cnccn3)[nH]n2)c1)c1cccc(C(F)(F)F)c1 [Compound 13]", "NF-kB", 1),
    ("Cc1ccc(NC(=O)c2ccnc(C(C)(C)O)c2)cc1CCc1cc(Nc2cnccn2)[nH]n1 [Compound 5]", "NF-kB", 0),
    ("Cc1ccc(NC(=O)c2cc(S(=O)(=O)C3CC3)ccn2)cc1CCc1cc(Nc2cnccn2)[nH]n1 [Compound 8]", "NF-kB", 1),
    ("CS(=O)(=O)c1cccc(C(=O)Nc2ccc(F)c(CCc3cc(Nc4cnccn4)[nH]n3)c2)c1 [Compound 12]", "NF-kB", 0),
]
